From: paper doi:10.1101/2025.08.13.670122v1

# target.under.test: AT1R (Homo sapiens)
# protocol.notes: β-arrestin2 recruitment BRET (β-arrestin2-RLucII/rGFP-CAAX) in HEK293 cells expressing AT1R
# Format: cell-based
# Parameters: expressed in transfected cells; host or cells: HEK293 cells, transient PEI transfection
# condition.summary: HEK293/AT1R, β-arrestin2 BRET; response of the ligand at 10 μM, normalised to AngII
Peptide text beside a SMILES is read from it.
Can you tell me Emax βarr2 (% AngII) for the items I'm about to list?
Your answer is read as % AngII, so omit the unit and give the number.

Request: Item C=CCOc1ccc(C[C@H](NC(=O)[C@@H]2CCCN2C(=O)[C@H](Cc2c[nH]cn2)NC(=O)[C@@H](NC(=O)[C@H](Cc2ccc(O)cc2)NC(=O)[C@@H](NC(=O)[C@H](CCCNC(=N)N)NC(=O)[C@@H](N)CC(=O)O)C(C)C)[C@@H](C)CC)C(=O)O)cc1 [compound 10] : provide Emax βarr2 (% AngII)
Response: 100

Request: Identify Emax βarr2 (% AngII) associated with the molecule CC[C@H](C)[C@H](NC(=O)[C@H](Cc1ccc(O)cc1)NC(=O)[C@@H](NC(=O)[C@H](CCCNC(=N)N)NC(=O)[C@@H](N)CC(=O)O)C(C)C)C(=O)N[C@@H](Cc1c[nH]cn1)C(=O)N1CCC[C@H]1C(=O)N[C@@H](CCC(N)=O)C(=O)O [compound 7] (H-DRVYIHPQ-OH; N-terminus assumed)
Response: 56

* * *

# target.under.test: AT1R (Homo sapiens, UniProt P30556)
# Sequence (P30556 1-359): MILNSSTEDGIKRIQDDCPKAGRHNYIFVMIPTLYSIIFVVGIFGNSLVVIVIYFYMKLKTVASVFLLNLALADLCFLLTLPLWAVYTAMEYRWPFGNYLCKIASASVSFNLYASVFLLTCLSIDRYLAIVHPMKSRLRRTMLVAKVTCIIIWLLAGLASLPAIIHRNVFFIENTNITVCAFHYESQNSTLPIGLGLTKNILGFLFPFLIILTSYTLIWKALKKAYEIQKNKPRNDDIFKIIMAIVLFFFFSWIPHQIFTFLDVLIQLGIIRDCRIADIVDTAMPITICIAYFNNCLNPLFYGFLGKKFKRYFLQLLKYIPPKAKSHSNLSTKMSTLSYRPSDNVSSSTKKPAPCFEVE
# protocol.notes: Gαq activation BRET (GABY sensor) in HEK293 cells expressing AT1R
# Type: cell-based
# Parameters: expressed in transfected cells; host or cells: HEK293 cells, transient PEI transfection
# condition.summary: HEK293 cells transiently expressing human AT1R; Gαq-RlucII/Gβ1/Gγ1-GFP10 (GABY) BRET sensor; BRET read 10 min after ligand; mean ± SEM of at least three to five independent experiments; SEM
Could you please report measured EC50 for the items listed next?
# output: bare number, implied unit nM

Request: Provide EC50 value for the following compound: CCCC[C@H](NC(=O)[C@@H]1CCCN1C(=O)[C@H](Cc1c[nH]cn1)NC(=O)[C@@H](NC(=O)[C@H](Cc1ccc(O)cc1)NC(=O)[C@@H](NC(=O)[C@H](CCCNC(=N)N)NC(=O)[C@@H](N)CC(=O)O)C(C)C)[C@@H](C)CC)C(=O)O
Response: 3

Request: Item CC[C@H](C)[C@H](NC(=O)[C@H](Cc1ccc(O)cc1)NC(=O)[C@@H](NC(=O)[C@H](CCCNC(=N)N)NC(=O)[C@@H](N)CC(=O)O)C(C)C)C(=O)N[C@@H](Cc1c[nH]cn1)C(=O)N1CCC[C@H]1C(=O)N[C@@H](Cc1ccc(OC)cc1)C(=O)O : provide EC50
Response: 1.1

Request: Write down EC50 measured for item CC[C@H](C)[C@H](NC(=O)[C@H](Cc1ccc(O)cc1)NC(=O)[C@@H](NC(=O)[C@H](CCCNC(=N)N)NC(=O)[C@@H](N)CC(=O)O)C(C)C)C(=O)N[C@@H](Cc1c[nH]cn1)C(=O)N1CCC[C@H]1C(=O)N[C@H](C(=O)O)C(c1ccccc1)c1ccccc1
Response: 7.9

Request: Name the recorded EC50 of the compound listed here: CC[C@H](C)[C@H](NC(=O)[C@H](Cc1ccc(O)cc1)NC(=O)[C@@H](NC(=O)[C@H](CCCNC(=N)N)NC(=O)[C@@H](N)CC(=O)O)C(C)C)C(=O)N[C@@H](Cc1c[nH]cn1)C(=O)N1CCC[C@H]1C(=O)N[C@@H](COCc1ccccc1)C(=O)O
Response: 2.3

Request: Look up EC50 of CC[C@H](C)[C@H](NC(=O)[C@H](Cc1ccc(O)cc1)NC(=O)[C@@H](NC(=O)[C@H](CCCNC(=N)N)NC(=O)[C@@H](N)CC(=O)O)C(C)C)C(=O)N[C@@H](Cc1c[nH]cn1)C(=O)N1CCC[C@H]1C(=O)N[C@H](C(=O)O)C(C)(C)C and report it.
Response: 0.36

Request: Recall and state the measured EC50 for C=CCOc1ccc(C[C@H](NC(=O)[C@@H]2CCCN2C(=O)[C@H](Cc2c[nH]cn2)NC(=O)[C@@H](NC(=O)[C@H](Cc2ccc(O)cc2)NC(=O)[C@@H](NC(=O)[C@H](CCCNC(=N)N)NC(=O)[C@@H](N)CC(=O)O)C(C)C)[C@@H](C)CC)C(=O)O)cc1 .
Response: 17

Request: Indicate its recorded EC50; the compound in question is CC[C@H](C)[C@H](NC(=O)[C@H](Cc1ccc(O)cc1)NC(=O)[C@@H](NC(=O)[C@H](CCCNC(=N)N)NC(=O)[C@@H](N)CC(=O)O)C(C)C)C(=O)N[C@@H](Cc1c[nH]cn1)C(=O)N1CCC[C@H]1C(=O)N[C@@H](Cc1cccc2ccccc12)C(=O)O
Response: 8.3

* * *

# target.under.test: AT1R (Homo sapiens, UniProt P30556)
# Sequence (P30556 1-359): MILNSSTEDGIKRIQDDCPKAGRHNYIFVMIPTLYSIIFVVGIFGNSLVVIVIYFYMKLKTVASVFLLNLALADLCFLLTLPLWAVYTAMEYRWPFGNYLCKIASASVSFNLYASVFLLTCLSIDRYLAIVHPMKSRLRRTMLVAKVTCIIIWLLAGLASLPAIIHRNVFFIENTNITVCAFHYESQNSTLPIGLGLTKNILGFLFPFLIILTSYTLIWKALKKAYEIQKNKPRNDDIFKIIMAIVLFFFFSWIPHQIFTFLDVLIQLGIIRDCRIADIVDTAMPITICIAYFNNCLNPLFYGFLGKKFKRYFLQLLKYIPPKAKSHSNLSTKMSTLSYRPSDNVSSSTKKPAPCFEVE
# protocol.notes: β-arrestin2 recruitment BRET (β-arrestin2-RLucII/rGFP-CAAX) in HEK293 cells expressing AT1R
# Type: cell-based
# Parameters: expressed in transfected cells; host or cells: HEK293 cells, transient PEI transfection
# condition.summary: HEK293/AT1R, β-arrestin2 BRET; response of the ligand at 10 μM, normalised to AngII
Peptide text beside a SMILES is read from it.
outcome.measure: Emax βarr2 (% AngII)
Express it in % AngII; write the number only.

Request: Give the measured Emax βarr2 (% AngII) for CC[C@H](C)[C@H](NC(=O)[C@H](Cc1ccc(O)cc1)NC(=O)[C@@H](NC(=O)[C@H](CCCNC(=N)N)NC(=O)[C@@H](N)CC(=O)O)C(C)C)C(=O)N[C@@H](Cc1c[nH]cn1)C(=O)N1CCC[C@H]1C(=O)N[C@@H](Cc1cccnc1)C(=O)O
Response: 90

Request: # return recorded Emax βarr2 (% AngII) for input CC[C@H](C)[C@H](NC(=O)[C@H](Cc1ccc(O)cc1)NC(=O)[C@@H](NC(=O)[C@H](CCCNC(=N)N)NC(=O)[C@@H](N)CC(=O)O)C(C)C)C(=O)N[C@@H](Cc1c[nH]cn1)C(=O)N1CCC[C@H]1C(=O)N[C@@H](Cc1cccc2ccccc12)C(=O)O
Response: 101

Request: Quick one: give measured Emax βarr2 (% AngII) for CC[C@H](C)[C@H](NC(=O)[C@H](Cc1ccc(O)cc1)NC(=O)[C@@H](NC(=O)[C@H](CCCNC(=N)N)NC(=O)[C@@H](N)CC(=O)O)C(C)C)C(=O)N[C@@H](Cc1c[nH]cn1)C(=O)N1CCC[C@H]1C(=O)N[C@@H](COCc1ccccc1)C(=O)O
Response: 87

Request: Fill in Emax βarr2 (% AngII) for record CC[C@H](C)[C@H](NC(=O)[C@H](Cc1ccc(O)cc1)NC(=O)[C@@H](NC(=O)[C@H](CCCNC(=N)N)NC(=O)[C@@H](N)CC(=O)O)C(C)C)C(=O)N[C@@H](Cc1c[nH]cn1)C(=O)N1CCC[C@H]1C(=O)N[C@@H](Cc1ccc(O)cc1)C(=O)O [24c] (H-DRVYIHPY-OH)
Response: 105
